Listed here: compounds with reported IC50 for Cytochrome P450 1A2 (Homo sapiens).

>>> df
                                entrysmiles  reportedproperty  experimentalresult
0  COc1cc(N2CCC(N3CCN(C)CC3)CC2)ccc1-c1nc2c(N[C@H]3[C@@H](C(N)=O)[C@@H]4C=C[C@H]3C4)c(Cl)cnc2[nH]1              IC50             > 30 µM

Record for `COc1cc(CN2CCOCC2)ccc1-c1nc2c(N[C@H]3[C@@H](C(N)=O)[C@@H]4C=C[C@H]3C4)c(Cl)cnc2[nH]1` under target or system Cytochrome P450 1A2 (Homo sapiens): IC50 reported as > 30 µM
